Please provide measured pIC50 for the entries that follow.
Target: Amine oxidase [flavin-containing] B (Rattus norvegicus, UniProt P19643)
Sequence (P19643 whole entry): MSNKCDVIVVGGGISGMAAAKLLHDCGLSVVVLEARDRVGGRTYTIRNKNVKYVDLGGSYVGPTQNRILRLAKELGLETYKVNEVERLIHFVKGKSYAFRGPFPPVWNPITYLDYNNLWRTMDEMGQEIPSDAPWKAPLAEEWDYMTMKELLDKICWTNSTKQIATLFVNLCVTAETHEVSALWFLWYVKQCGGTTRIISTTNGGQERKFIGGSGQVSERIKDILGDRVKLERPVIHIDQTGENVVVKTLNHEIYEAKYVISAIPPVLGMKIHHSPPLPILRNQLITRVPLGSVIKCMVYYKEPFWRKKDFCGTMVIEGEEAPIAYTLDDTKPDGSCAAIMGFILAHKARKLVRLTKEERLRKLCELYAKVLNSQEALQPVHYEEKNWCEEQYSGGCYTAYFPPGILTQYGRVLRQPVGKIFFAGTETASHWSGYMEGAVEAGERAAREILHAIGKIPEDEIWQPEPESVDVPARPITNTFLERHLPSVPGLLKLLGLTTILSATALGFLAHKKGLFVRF
# log scale: pIC50 equals minus log10 of the concentration in mol/L

Tell me measured pIC50 for CCOc1ccc(/C=C/C(=N/Nc2nc3ccccc3c(=O)n2C)c2ccccc2)cc1 please.
3.37

Tell me measured pIC50 for Cn1c(N/N=C(/C=C/c2ccc(Br)cc2)c2ccccc2)nc2ccccc2c1=O please.
3.31

Tell me measured pIC50 for COc1ccc(/C=C/C(=N/Nc2nc3ccccc3c(=O)n2C)c2ccccc2)cc1OC please.
3.33

Tell me measured pIC50 for Cn1c(N2N=C(c3ccc(Cl)cc3)CC2c2cccs2)nc2ccccc2c1=O (stereo not given) please.
4.56

Tell me measured pIC50 for Cn1c(=S)[nH]c2ccccc2c1=O please.
3.92

Tell me measured pIC50 for Cn1c(N/N=C(/C=C/c2cccc(Cl)c2)c2ccccc2)nc2ccccc2c1=O please.
5.94

Tell me measured pIC50 for Cc1ccc(C2=NN(c3nc4ccccc4c(=O)n3C)C(c3cccs3)C2)cc1 (stereo not given) please.
4.15

Tell me measured pIC50 for Cn1c(N2N=C(c3ccccc3)CC2c2cccc(Cl)c2)nc2ccccc2c1=O (stereo not given) please.
3.40

Tell me measured pIC50 for Cn1c(N2N=C(c3ccccc3)CC2c2ccc(Br)cc2)nc2ccccc2c1=O (stereo not given) please.
3.31

Tell me measured pIC50 for Cn1c(N/N=C(/C=C/c2ccccc2)c2ccccc2)nc2ccccc2c1=O please.
3.38

Tell me measured pIC50 for COc1ccc(C2CC(c3ccccc3)=NN2c2nc3ccccc3c(=O)n2C)cc1 (stereo not given) please.
3.40

Tell me measured pIC50 for COc1ccc(/C=C/C(=N/Nc2nc3ccccc3c(=O)n2C)c2ccccc2)cc1 please.
3.40

Tell me measured pIC50 for Cc1ccc(/C=C/C(=N/Nc2nc3ccccc3c(=O)n2C)c2ccccc2)cc1 please.
3.33

Tell me measured pIC50 for Cc1ccc(C2CC(c3ccccc3)=NN2c2nc3ccccc3c(=O)n2C)cc1 (stereo not given) please.
3.32

Tell me measured pIC50 for COc1ccc(C(/C=C/c2ccco2)=N\Nc2nc3ccccc3c(=O)n2C)cc1 please.
3.38
